Test system: NCI-H23
Assay: NCI tumour cell line growth inhibition, 48 h
Calls of active or inactive are those of the source. No stated cut-off is given here; in the data, active = GI50 up to about 1.1 µM and inactive = higher.
Would you mind answering with one of these outcomes? T = active, F = inactive

See these solved cases before continuing.
O=S(=O)(O)c1cc(O)c(/N=N/c2ccc3ccccc3c2O)c2ccccc12    F
CC(=O)O[C@H]1C(=O)[C@]2(C)[C@@H](OC(=O)OCCC(O)CO)C[C@H]3OC[C@@]3(OC(C)=O)[C@H]2[C@H](OC(=O)c2ccccc2)[C@]2(O)C[C@H](OC(=O)[C@H](O)[C@@H](NC(=O)c3ccccc3)c3ccccc3)C(C)=C1C2(C)C (some centres not stated)    T
CC1=C(C(=O)Nc2ccc(Cl)c(Cl)c2)C(c2ccc([N+](=O)[O-])cc2)C(C(=O)Nc2ccc(Cl)c(Cl)c2)=C(C)N1    F
O=CN1CCN(c2ccc3ccc(O)nc3n2)CC1    F

Per the records of this test, what outcome belongs to CC(=O)NNc1nc(C)c(C(/C=C/c2ccc3c(c2)OCO3)=N/Nc2ccccc2)s1 ? F

Hi, sorry to bother you, what did the test record for C[N+]1(C(CO)Cc2c[nH]c3ccccc23)Cc2ccccc2C1 (configuration not stated) ? F

Which result was noted for this compound in the test: COc1cc2c(cc1OC)-c1cc(OC)c(OC)cc1[C@H]1CN3CCC[C@@]3(O)C=C21 T

Look up the recorded call for C/C(CC(O)(C(F)(F)F)C(F)(F)F)=N\NC(N)=O in this test. F

# lookup: test call for Nc1ccc(C2NC(=O)Cc3c2ccc2ccccc32)cc1 (configuration not stated) F

Entry COc1ccc(/C(Cl)=C(\C=O)c2ccc(Cl)c(Cl)c2)cc1 : call = ? F

Please let me know the test result on file for O=C(CC1=Nc2nnc(CCCCCCCc3nnc4n3C(=O)C(CC(=O)c3ccc5ccccc5c3)=N4)n2C1=O)c1ccc2ccccc2c1 . F

# fetch the recorded call for COC(=O)c1c2c(cc3c1CC1(Cc4cc5c(c(C=O)c4C1)CCC5)C3)CCC2 (configuration not stated) here F

---

Test system: SF-295
Experiment: NCI tumour cell line growth inhibition, 48 h
The source made the active and inactive calls. No stated cut-off is given here; in the data, active = GI50 up to about 1.1 µM and inactive = higher.
GI50 reference

Sample answers from the record:
FC(F)(F)C1(Cl)C(Cl)(c2ccccc2)C1(Cl)c1ccccc1 (stereo not given)    15.8 µM (inactive)
CC1=NNC(=O)C1C1CC(c2c[nH]c3ccccc23)=NNC1=S (stereo not given)    > 100 µM (inactive)

Report value only: GI50, SF-295, CCOC1=NC(=O)CC(c2ccccc2)S1 (stereo not given) > 100 µM (inactive)

---

Test system: A498
Test: NCI tumour cell line growth inhibition, 48 h
Calls of active or inactive are those of the source. No stated cut-off is given here; in the data, active = GI50 up to about 1.1 µM and inactive = higher.
Write down the outcome that applies. Available outcomes: active, inactive

A selection of reference data follows.
CC1(C)[C@@H](Cn2cnc3c(N)ncnc32)CC[C@@]1(C)CO    inactive
O=C1c2cc(O)c(O)cc2O[C@H](c2ccc(O)c(O)c2)[C@H]1O    inactive
O=C(CC1=Nc2nnc(CCCCCCCc3nnc4n3C(=O)C(CC(=O)c3ccc5ccccc5c3)=N4)n2C1=O)c1ccc2ccccc2c1    active
COc1ccc(/C(Cl)=C(\C=O)c2ccc(Cl)c(Cl)c2)cc1    inactive

State the result this test recorded for O=C1CC(c2c[nH]c3ccccc23)C(=O)N1 (stereo not given) . inactive

This collection of values is drawn from ChEMBL document CHEMBL1201862.
